Cited source for all entries: patent US8445502B2

Test: 28-day chronic oral tolerability and toxicokinetics in dog
Type: in vivo
Conditions: both sexes, beagle, dog, in vivo, po, 30 mg/kg/day
property.name: AUC

> print(dat)
                                   molecule                  result
1  Cl.S=C(NCc1ccc2c(c1)OCO2)N1CCN(c2ncnc3c2oc2ccccc23)CC1 [MP470.HCl]  0.0979 to 1.13 µg·h/mL

###

Molecular target: cKit (D816V) (h) (Homo sapiens, UniProt P10721, D816V)
Sequence (P10721 26-976 D816V): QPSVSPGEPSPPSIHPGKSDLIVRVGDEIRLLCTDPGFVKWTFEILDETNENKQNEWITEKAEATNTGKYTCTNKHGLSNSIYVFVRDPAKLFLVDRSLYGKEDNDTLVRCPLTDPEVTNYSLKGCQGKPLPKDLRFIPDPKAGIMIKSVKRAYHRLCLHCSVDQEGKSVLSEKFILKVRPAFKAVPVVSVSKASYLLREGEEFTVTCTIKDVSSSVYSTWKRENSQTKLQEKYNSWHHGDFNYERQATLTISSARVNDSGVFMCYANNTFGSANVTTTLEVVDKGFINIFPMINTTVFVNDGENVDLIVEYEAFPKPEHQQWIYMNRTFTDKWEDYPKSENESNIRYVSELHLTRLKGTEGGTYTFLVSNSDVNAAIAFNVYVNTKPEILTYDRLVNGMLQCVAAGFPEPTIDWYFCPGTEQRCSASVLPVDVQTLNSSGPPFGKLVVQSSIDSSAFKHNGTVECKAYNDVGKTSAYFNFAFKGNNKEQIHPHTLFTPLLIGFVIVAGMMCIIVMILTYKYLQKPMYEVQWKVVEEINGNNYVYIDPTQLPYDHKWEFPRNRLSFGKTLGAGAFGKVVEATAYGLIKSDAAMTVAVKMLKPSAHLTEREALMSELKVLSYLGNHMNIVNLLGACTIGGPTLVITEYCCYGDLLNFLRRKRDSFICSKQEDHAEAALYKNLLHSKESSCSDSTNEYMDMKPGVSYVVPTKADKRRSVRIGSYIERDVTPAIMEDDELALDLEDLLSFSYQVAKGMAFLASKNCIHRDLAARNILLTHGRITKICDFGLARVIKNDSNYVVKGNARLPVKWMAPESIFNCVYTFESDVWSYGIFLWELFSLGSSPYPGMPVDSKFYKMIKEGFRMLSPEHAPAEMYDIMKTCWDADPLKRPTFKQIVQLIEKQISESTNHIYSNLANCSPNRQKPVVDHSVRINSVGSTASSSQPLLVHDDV
Experiment: Mutant kinase IC50 screen
Assay type: biochemical
property.name: IC50 (µM)

> print(dat)
                                   molecule  number
1  Cl.S=C(NCc1ccc2c(c1)OCO2)N1CCN(c2ncnc3c2oc2ccccc23)CC1 [MP470.HCl]    0.95
